- target_or_test_system: IRAK4 (Homo sapiens)
- Sequence (Q9NWZ3 whole entry): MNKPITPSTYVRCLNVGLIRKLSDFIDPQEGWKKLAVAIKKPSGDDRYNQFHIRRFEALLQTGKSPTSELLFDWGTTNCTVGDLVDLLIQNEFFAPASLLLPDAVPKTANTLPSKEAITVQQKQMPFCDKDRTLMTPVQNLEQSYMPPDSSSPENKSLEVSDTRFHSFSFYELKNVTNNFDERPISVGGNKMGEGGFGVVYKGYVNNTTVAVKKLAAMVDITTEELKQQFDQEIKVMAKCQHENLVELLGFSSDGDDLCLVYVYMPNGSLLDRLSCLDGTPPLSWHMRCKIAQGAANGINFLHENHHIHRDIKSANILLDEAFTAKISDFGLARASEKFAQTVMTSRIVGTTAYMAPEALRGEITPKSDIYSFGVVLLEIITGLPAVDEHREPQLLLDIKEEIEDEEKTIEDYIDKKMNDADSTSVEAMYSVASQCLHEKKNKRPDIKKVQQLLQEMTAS
- experimental_details: RBC HotSpot Kinase Assay, IRAK4
- test_conditions: IRAK4 IC50
// reported pIC50 per item
The scale used: pIC50 is minus the common logarithm of the concentration in molar units.

CC(O)(c1cn2c(-c3ccnc(N[C@H]4CNCC[C@@H]4F)n3)cnc2cn1)C(F)(F)F (single isomer, unassigned) [Compound 72]: 9.15

Next up:
Field pIC50 (entry FC(F)Oc1ccn2c(-c3cncc(N[C@@H]4CCCNC4)n3)cnc2c1 [Compound 14] ) reads 7.92

* * *

- target_or_test_system: FLT3 D835H (Homo sapiens, UniProt P36888, D835H)
- experimental_details: DiscoverX KINOMEscan competition binding, FLT3 D835H
Strictly below 0.5 nM in Kd: Condition met. Otherwise: Condition not met.

CC(O)(c1cn2c(-c3ccnc(N[C@H]4CNCC[C@@H]4F)n3)cnc2cn1)C(F)(F)F (single isomer, unassigned): Condition not met
COc1cc2ncc(-c3ccnc(N[C@H]4CNCC[C@@H]4F)n3)n2nc1C1CC1: Condition met
F[C@H]1CCNC[C@@H]1Nc1cncc(-c2cnc3cc(OC4CC4)ccn23)n1: Condition not met

Record `COc1cc2ncc(-c3ccnc(N[C@@H]4CCCNC4)n3)n2cc1C(C)(C)O` : is its Kd strictly below 0.5 nM?
Condition met
